Biological target: Pannexin-1 (Mus musculus) (UniProt Q9JIP4)
Sequence (Q9JIP4 whole entry): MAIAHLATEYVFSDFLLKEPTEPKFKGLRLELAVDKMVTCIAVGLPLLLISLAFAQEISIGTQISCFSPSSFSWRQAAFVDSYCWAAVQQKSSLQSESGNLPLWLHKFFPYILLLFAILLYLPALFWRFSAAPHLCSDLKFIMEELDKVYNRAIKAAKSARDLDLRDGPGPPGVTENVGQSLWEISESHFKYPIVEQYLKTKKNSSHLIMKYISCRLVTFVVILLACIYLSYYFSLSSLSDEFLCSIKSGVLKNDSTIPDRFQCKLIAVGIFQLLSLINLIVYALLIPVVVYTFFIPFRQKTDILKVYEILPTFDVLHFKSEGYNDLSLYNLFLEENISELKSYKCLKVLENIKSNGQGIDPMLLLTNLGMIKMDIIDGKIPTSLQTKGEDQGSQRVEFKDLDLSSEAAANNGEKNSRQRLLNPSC
Assay: Inhibition of mouse Panx-1 expressed in Xenopus laevis oocytes assessed as inhibition of membrane current cells held at -60 mV and voltage steps to +60 mV in presence of CBX at 50 uM measured by Whole cell voltage clamp assay relative to control
Assay type: cell-based
Conditions: Oocyte
endpoint: inhibition (%)
Kindly answer with a numeric value in %, unit omitted.

Worked examples, 5 compounds total:
| smiles string | unit spec | inhibition |
| --- | --- | --- |
| O=C(O)c1cn(CCCCc2ccccc2)c2ccc([N+](=O)[O-])cc12 | % | 65.7 |
| O=C(O)c1cn(CCc2ccccc2)c2ccc([N+](=O)[O-])cc12 | % | 52.7 |
| O=C(O)c1ccc(CN(Cc2ccc(C(=O)O)cc2)S(=O)(=O)c2ccc3c(c2)cc(C(=O)O)n3Cc2ccc(C(=O)O)cc2)cc1 | % | 79 |
| O=C(O)c1cc2cc(S(=O)(=O)N(CCc3ccccc3)Cc3ccccc3)ccc2n1CCc1ccccc1 | % | 37.3 |
| O=C(O)c1cc2cc(S(=O)(=O)NCc3ccccc3)ccc2n1Cc1ccccc1 | % | 42 |

Next compound, inhibition to be filled in.
Noted for O=C(O)c1cn(Cc2ccccc2)c2ccc(N(Cc3ccccc3)Cc3ccccc3)cc12 : its inhibition reads 19.5
